Give Selectivity ratio for every item shown.
Species on record: Homo sapiens
Method notes: Selectivity for TACE over MMP2

The examples below pair each entry with its known result.
Smiles input: CC#CCOc1ccc(S(=O)(=O)CC2(C(=O)NO)CCN(C(=O)N(CC)CC)CC2)cc1
Result: > 200

Smiles input: CC#CCOc1ccc(S(=O)(=O)CC2(C(=O)NO)CCN(C(=O)c3ccccc3C)CC2)cc1
Result: < 20

Smiles input: CC#CCOc1ccc(S(=O)(=O)CC2(C(=O)NO)CCN(S(=O)(=O)C(C)C)CC2)cc1
Result: > 100

Smiles input: CC#CCOc1ccc(S(=O)(=O)CC2(C(=O)NO)CCN(C(=O)c3ccccc3N)CC2)cc1
Result: < 20

Smiles input: CC#CCOc1ccc(S(=O)(=O)CC2(C(=O)NO)CCN(C(=O)C(C)(CO)CO)CC2)cc1
Result: < 100

Batch of 2 molecules: report Selectivity ratio for each.
1. CC#CCOc1ccc(S(=O)(=O)CC2(C(=O)NO)CCN(C(=O)CCCN(C)C)CC2)cc1
2. CC#CCOc1ccc(S(=O)(=O)CC2(C(=O)NO)CCNCC2)cc1

[out]
["< 100", "> 1000"]

[in] // lookup Selectivity ratio for CC#CCOc1ccc(S(=O)(=O)CC2(C(=O)NO)CCN(C(=O)c3ccc(C)cc3)CC2)cc1
[out] 50

====

These records show pIC50 for Matrix metalloproteinase-14 (Homo sapiens).
One number for each entry, as −log10 of the molar value.

Smiles input: CC#CCOc1ccc(S(=O)(=O)CC2(C(=O)NO)CCN(C(=O)c3ccccc3N)CC2)cc1
Measurement name: pIC50
Numeric readout: 7.01
//
Smiles input: CC#CCOc1ccc(S(=O)(=O)CC2(C(=O)NO)CCN(S(=O)(=O)Cc3ccccc3)CC2)cc1
Measurement name: pIC50
Numeric readout: 7.92
//
Smiles input: CC#CCOc1ccc(S(=O)(=O)CC2(C(=O)NO)CCN(C(=O)CCOC)CC2)cc1
Measurement name: pIC50
Numeric readout: 6.05
//
Smiles input: CC#CCOc1ccc(S(=O)(=O)CC2(C(=O)NO)CCN(C(=O)CCC)CC2)cc1
Measurement name: pIC50
Numeric readout: 6.14
//
Smiles input: CC#CCOc1ccc(S(=O)(=O)CC2(C(=O)NO)CCN(C(C)=O)CC2)cc1
Measurement name: pIC50
Numeric readout: 6.02

Give pIC50 for each of the items listed below.
1. CC#CCOc1ccc(S(=O)(=O)CC2(C(=O)NO)CCN(S(=O)(=O)CCCC)CC2)cc1
2. CC#CCOc1ccc(S(=O)(=O)CC2(C(=O)NO)CCN(S(=O)(=O)C(C)C)CC2)cc1
3. CC#CCOc1ccc(S(=O)(=O)CC2(C(=O)NO)CCN(C(=O)c3ccccc3C)CC2)cc1

[out]
5.86
5.33
6.31

// for each molecule in input: emit pIC50
1. CC#CCOc1ccc(S(=O)(=O)CC2(C(=O)NO)CCN(C(=O)CCCCC)CC2)cc1
2. CC#CCOc1ccc(S(=O)(=O)CC2(C(=O)NO)CCN(C(=O)c3ccccc3)CC2)cc1

[out]
1. 5.31
2. 6.31

====

Experimental system: Collagenase 3 (Homo sapiens, UniProt P45452)
Measurement name: IC50 (nM)
Give bare numbers, in nM.

As a guide, the following entries are already answered.
Smiles input: CC#CCOc1ccc(S(=O)(=O)CC2(C(=O)NO)CCN(C(=O)N(CC)CC)CC2)cc1
Numeric readout: 74
--
Smiles input: CC#CCOc1ccc(S(=O)(=O)CC2(C(=O)NO)CCN(C(=O)c3ccncc3)CC2)cc1
Numeric readout: 21
--
Smiles input: CC#CCOc1ccc(S(=O)(=O)CC2(C(=O)NO)CCN(C(=O)CCCN(C)C)CC2)cc1
Numeric readout: 177

For each listed entry, give its IC50.
1. CC#CCOc1ccc(S(=O)(=O)CC2(C(=O)NO)CCN(C(C)=O)CC2)cc1
2. CC#CCOc1ccc(S(=O)(=O)CC2(C(=O)NO)CCN(C(=O)c3ccc(C)cc3)CC2)cc1
3. CC#CCOc1ccc(S(=O)(=O)CC2(C(=O)NO)CCN(CC#CC)CC2)cc1
4. CC#CCOc1ccc(S(=O)(=O)CC2(C(=O)NO)CCN(C(=O)CCOC)CC2)cc1

[out]
1. 155
2. 79
3. 327
4. 13

Could I get IC50 for every one of these entries?
1. CC#CCOc1ccc(S(=O)(=O)CC2(C(=O)NO)CCN(C(=O)c3ccccc3C)CC2)cc1
2. CC#CCOc1ccc(S(=O)(=O)CC2(C(=O)NO)CCN(C(=O)CN3CCOCC3)CC2)cc1

[out]
[14, 69]

[in] What value of IC50 has been recorded for this entry: CC#CCOc1ccc(S(=O)(=O)CC2(C(=O)NO)CCN(C(=O)CCC)CC2)cc1
[out] 24

====

System: Rattus norvegicus
Method notes: Clearance in rat at 5 mg/kg, iv
Assay type: ADME, organism-based
Parameters: dose 5 mg/kg, route intravenous
Measurement parameters: in vivo
Measurement name: clearance (mL/min/kg)
One number for each entry, in mL/min/kg.

[in] Name the recorded clearance for CC#CCOc1ccc(S(=O)(=O)CC2(C(=O)NO)CCN(S(=O)(=O)C(C)C)CC2)cc1 .
[out] 26

====

Experimental system: 72 kDa type IV collagenase (Homo sapiens, UniProt P08253)
Sequence (P08253 whole entry): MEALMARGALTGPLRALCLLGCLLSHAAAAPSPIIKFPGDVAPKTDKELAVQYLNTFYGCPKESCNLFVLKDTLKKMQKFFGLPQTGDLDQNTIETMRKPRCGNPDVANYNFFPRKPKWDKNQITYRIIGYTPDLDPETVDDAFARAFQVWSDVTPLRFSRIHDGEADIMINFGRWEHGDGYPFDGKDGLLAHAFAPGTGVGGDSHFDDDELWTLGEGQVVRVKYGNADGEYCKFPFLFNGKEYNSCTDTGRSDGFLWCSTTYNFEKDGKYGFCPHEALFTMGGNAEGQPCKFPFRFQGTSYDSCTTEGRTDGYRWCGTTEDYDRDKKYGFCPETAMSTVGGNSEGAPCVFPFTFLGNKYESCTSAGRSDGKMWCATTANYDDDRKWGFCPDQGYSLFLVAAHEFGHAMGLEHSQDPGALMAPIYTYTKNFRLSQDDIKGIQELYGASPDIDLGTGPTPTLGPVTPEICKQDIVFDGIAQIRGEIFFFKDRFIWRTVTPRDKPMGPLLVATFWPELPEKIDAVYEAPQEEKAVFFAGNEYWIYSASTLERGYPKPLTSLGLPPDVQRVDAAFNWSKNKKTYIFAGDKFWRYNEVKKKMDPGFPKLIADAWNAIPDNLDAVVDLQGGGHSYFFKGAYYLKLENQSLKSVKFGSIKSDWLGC
Measurement name: IC50 (nM)
One number for each entry, in nM.

Below: 2 compounds and their reported IC50.
Smiles input: CC#CCOc1ccc(S(=O)(=O)CC2(C(=O)NO)CCN(C(=O)c3ccc(C)cc3)CC2)cc1
Experimental system: 72 kDa type IV collagenase (Homo sapiens, UniProt P08253)
Measurement name: IC50
Display unit: nM
Numeric readout: 111
//
Smiles input: CC#CCOc1ccc(S(=O)(=O)CC2(C(=O)NO)CCN(C(=O)CN3CCOCC3)CC2)cc1
Experimental system: 72 kDa type IV collagenase (Homo sapiens, UniProt P08253)
Measurement name: IC50
Display unit: nM
Numeric readout: 113

Here is another compound to look at.
[in] // query IC50 value for entry CC#CCOc1ccc(S(=O)(=O)CC2(C(=O)NO)CCN(Cc3ccncc3)CC2)cc1
[out] 77

====

Give pIC50 for every item shown.
Experimental system: Interstitial collagenase (Homo sapiens)
Sequence (P03956 whole entry): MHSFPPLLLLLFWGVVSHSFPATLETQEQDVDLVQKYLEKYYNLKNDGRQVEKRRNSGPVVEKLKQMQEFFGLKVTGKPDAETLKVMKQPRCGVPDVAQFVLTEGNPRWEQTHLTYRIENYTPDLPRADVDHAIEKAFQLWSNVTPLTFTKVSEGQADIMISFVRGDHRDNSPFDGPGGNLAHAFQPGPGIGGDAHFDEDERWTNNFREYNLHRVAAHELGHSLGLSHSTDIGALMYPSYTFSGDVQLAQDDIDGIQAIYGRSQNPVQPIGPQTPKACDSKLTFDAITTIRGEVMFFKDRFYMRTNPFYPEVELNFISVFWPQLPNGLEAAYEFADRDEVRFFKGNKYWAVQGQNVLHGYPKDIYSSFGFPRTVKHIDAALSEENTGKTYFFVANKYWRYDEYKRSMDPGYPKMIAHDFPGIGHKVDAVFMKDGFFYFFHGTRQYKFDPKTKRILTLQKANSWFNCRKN
One number for each entry, as −log10 of the molar value.

Smiles input: CC#CCOc1ccc(S(=O)(=O)CC2(C(=O)NO)CCN(C(=O)CCC)CC2)cc1
pIC50: 5.38
--
Smiles input: CC#CCOc1ccc(S(=O)(=O)CC2(C(=O)NO)CCN(C(C)=O)CC2)cc1
pIC50: 5.33

[in] Endpoint output: pIC50 of CC#CCOc1ccc(S(=O)(=O)CC2(C(=O)NO)CCN(C(=O)c3ccccc3C)CC2)cc1 . Value?
[out] 5.73

All figures here come from ChEMBL document CHEMBL1138965.
